# EXPERIMENTAL_TARGET: 11β-HSD1 (Homo sapiens (Human), UniProt P28845)
# Sequence (P28845 whole entry): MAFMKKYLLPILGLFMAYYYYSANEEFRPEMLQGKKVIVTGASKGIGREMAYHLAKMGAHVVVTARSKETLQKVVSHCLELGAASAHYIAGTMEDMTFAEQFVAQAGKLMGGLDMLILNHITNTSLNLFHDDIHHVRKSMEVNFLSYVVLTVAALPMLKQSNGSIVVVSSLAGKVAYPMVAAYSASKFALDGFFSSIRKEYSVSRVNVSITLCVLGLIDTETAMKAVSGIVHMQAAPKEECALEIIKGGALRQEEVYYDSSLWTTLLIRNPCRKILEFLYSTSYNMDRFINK
# METHOD_SUMMARY: Biological Test Example 1: inhibition of a microsomal preparation of 11β-HSD1 (SPA)
# Format: biochemical
# CONDITION_SET: Biological Test Example 1; 100 nM compound
Quick rule: Average % inhibition at 100 nM of at least 10% means y, below that means n.

Query block: Check if Average % inhibition at 100 nM >= 10% (inclusive). Item: Cc1csc(C2CCN(C(=O)OC3C4CC5CC3CC(C(N)=O)(C5)C4)C2)n1 (single isomer, unassigned) [EXAMPLE 42 Isomer 1]
Result block: y

Query block: Check if Average % inhibition at 100 nM >= 10% (inclusive). Item: Cc1ccnc(C2CCN(C(=O)OC3C4CC5CC3CC(C(N)=O)(C5)C4)C2)n1 (single isomer, unassigned) [EXAMPLE 38 Isomer 2]
Result block: y

Query block: Check if Average % inhibition at 100 nM >= 10% (inclusive). Item: Cc1cc(C2CCN(C(=O)OC3C4CC5CC3CC(C(N)=O)(C5)C4)C2)nn1C (single isomer, unassigned) [EXAMPLE 40 Isomer 2]
Result block: n

Query block: Check if Average % inhibition at 100 nM >= 10% (inclusive). Item: NC(=O)C12CC3CC(C1)C(OC(=O)N1CCC(c4nccc(C(F)(F)F)n4)C1)C(C3)C2 (single isomer, unassigned) [EXAMPLE 48 Isomer 2]
Result block: y

Query block: Check if Average % inhibition at 100 nM >= 10% (inclusive). Item: NC(=O)c1cnc(C2CCN(C(=O)OC3C4CC5CC3CC(C(N)=O)(C5)C4)C2)nc1 (single isomer, unassigned) [EXAMPLE 47 Isomer 2]
Result block: y

* * *

# EXPERIMENTAL_TARGET: UniProt:P28845
# METHOD_SUMMARY: Biological Test Example 1: inhibition of a microsomal preparation of 11β-HSD1 (SPA)
# Format: biochemical
# CONDITION_SET: Biological Test Example 1; 100 nM compound
RESULT_TYPE: Average % inhibition at 100 nM (%)
Answer format: numeric, % implied, no suffix.

Query block: Report Average % inhibition at 100 nM, nothing else, for this molecule: COc1cnc(C2CCN(C(=O)OC3C4CC5CC3CC(C(N)=O)(C5)C4)C2)nc1 (single isomer, unassigned) [EXAMPLE 44 Isomer 1]
Result block: 95.2

Query block: Report Average % inhibition at 100 nM, nothing else, for this molecule: NC(=O)[C@]12CC3CC(C1)[C@@H](OC(=O)N1CCC(c4ncc(Cl)cn4)C1)C(C3)C2 (single isomer, unassigned) [EXAMPLE 26]
Result block: 94.5

Query block: Report Average % inhibition at 100 nM, nothing else, for this molecule: Cc1cc(C)nc(C2CCN(C(=O)OC3C4CC5CC3CC(C(N)=O)(C5)C4)C2)n1 (single isomer, unassigned) [EXAMPLE 43 Isomer 1]
Result block: 86.5

Query block: Report Average % inhibition at 100 nM, nothing else, for this molecule: O=C(OC1C2CC3CC1CC(C(=O)O)(C3)C2)N1CCC(c2ncc(Cl)cn2)C1 (single isomer, unassigned) [EXAMPLE 46 Isomer 2]
Result block: 3.8

Query block: Report Average % inhibition at 100 nM, nothing else, for this molecule: Cc1csc(C2CCN(C(=O)OC3C4CC5CC3CC(C(N)=O)(C5)C4)C2)n1 (single isomer, unassigned) [EXAMPLE 42 Isomer 2]
Result block: 21.8

Query block: Report Average % inhibition at 100 nM, nothing else, for this molecule: Cn1cc(-c2cnc(C3CCN(C(=O)OC4C5CC6CC4CC(C(N)=O)(C6)C5)C3)nc2)ccc1=O (single isomer, unassigned) [EXAMPLE 58 Isomer 1]
Result block: 69.4

* * *

# EXPERIMENTAL_TARGET: 11β-HSD1 (Homo sapiens (Human), UniProt P28845)
# METHOD_SUMMARY: Biological Test Example 1: inhibition of a microsomal preparation of 11β-HSD1 (SPA)
# Type: biochemical
# CONDITION_SET: Biological Test Example 1; read-out: IC50
Hi there, I'd appreciate the recorded IC50 for every entry that follows.
Answer format: numeric, nM implied, no suffix.

Query block: Report IC50, nothing else, for this molecule: `NC(=O)[C@]12CC3CC(C1)[C@@H](OC(=O)N1CC[C@@H](n4c(=O)[nH]c5ccccc54)C1)C(C3)C2`
Result block: 4.17

Query block: Report IC50, nothing else, for this molecule: Cc1ccc(C2CCN(C(=O)OC3C4CC5CC3CC(C(N)=O)(C5)C4)C2)nc1 (single isomer, unassigned) [EXAMPLE 35 Isomer 1]
Result block: 1.61

Query block: Report IC50, nothing else, for this molecule: `Cn1c(=O)n([C@@H]2CCN(C(=O)O[C@H]3C4CC5CC3C[C@](C(N)=O)(C5)C4)C2)c2ncc(Cl)cc21`
Result block: 1

Query block: Report IC50, nothing else, for this molecule: Cn1c(=O)ccc2cc(C3CCN(C(=O)OC4C5CC6CC(C5)CC4C6)C3)ccc21 (stereo not drawn)
Result block: 1.96

Query block: Report IC50, nothing else, for this molecule: `NC(=O)[C@]12CC3CC(C1)[C@@H](OC(=O)N1CC[C@@H](n4c(=O)[nH]c5cc(Cl)cnc54)C1)C(C3)C2`
Result block: 1.04

* * *

# EXPERIMENTAL_TARGET: 11β-HSD1 (Homo sapiens (Human))
# METHOD_SUMMARY: Biological Test Example 1: inhibition of a microsomal preparation of 11β-HSD1 (SPA)
# Format: biochemical
# CONDITION_SET: Biological Test Example 1; read-out: IC50
RESULT_TYPE: IC50
For clarity, give the value followed by its unit.

Query block: Report IC50, nothing else, for this compound: NC(=O)[C@]12CC3CC(C1)[C@@H](OC(=O)N1CC[C@H](n4c(=O)[nH]c5cccc(Cl)c54)C1)C(C3)C2 [EXAMPLE 67]
Result block: 0.68 nM

Query block: Report IC50, nothing else, for this compound: NC(=O)[C@]12CC3CC(C1)[C@@H](OC(=O)N1CC[C@@H](Oc4ccc(C(F)(F)F)cn4)C1)C(C3)C2 [EXAMPLE 5]
Result block: 0.99 nM

Query block: Report IC50, nothing else, for this compound: Cc1nc2cc(C#N)ccc2n1[C@H]1CCN(C(=O)OC2C3CC4CC2CC(C(N)=O)(C4)C3)C1 (stereo partly shown) [EXAMPLE 75]
Result block: 5.03 nM

Query block: Report IC50, nothing else, for this compound: Cc1nc2cccc(Cl)c2n1[C@H]1CCN(C(=O)OC2C3CC4CC2CC(C(N)=O)(C4)C3)C1 (stereo partly shown) [EXAMPLE 76]
Result block: 1.11 nM

Query block: Report IC50, nothing else, for this compound: NC(=O)[C@]12CC3CC(C1)[C@@H](OC(=O)N1CC[C@H](n4c(=O)[nH]c5cc(F)ccc54)C1)C(C3)C2 [EXAMPLE 63]
Result block: 1.01 nM

Query block: Report IC50, nothing else, for this compound: NC(=O)[C@]12CC3CC(C1)[C@@H](OC(=O)N1CCCC1c1ccccn1)C(C3)C2 (stereo partly shown) [EXAMPLE 19]
Result block: 6.74 nM

Query block: Report IC50, nothing else, for this compound: NC(=O)[C@]12CC3CC(C1)[C@@H](OC(=O)N1CC[C@@H](Oc4ncc(F)cc4F)C1)C(C3)C2 (relative stereo) [EXAMPLE 1]
Result block: 1.54 nM

* * *

# EXPERIMENTAL_TARGET: 11β-HSD1 (Homo sapiens (Human), UniProt P28845)
# METHOD_SUMMARY: Biological Test Example 1: inhibition of a microsomal preparation of 11β-HSD1 (SPA)
# Type: biochemical
# CONDITION_SET: Biological Test Example 1; 100 nM compound
Hi there, I'd appreciate the recorded Average % inhibition at 100 nM for every entry that follows.
Answer format: numeric, % implied, no suffix.

Query block: Report Average % inhibition at 100 nM, nothing else, for this compound: NC(=O)C12CC3CC(C1)C(OC(=O)N1CCC(c4nccc(C(F)(F)F)n4)C1)C(C3)C2 (single isomer, unassigned) [EXAMPLE 48 Isomer 1]
Result block: 94.5

Query block: Report Average % inhibition at 100 nM, nothing else, for this compound: O=C(OC1C2CC3CC1CC(C(=O)O)(C3)C2)N1CCC(c2ncc(Cl)cn2)C1 (single isomer, unassigned) [EXAMPLE 46 Isomer 1]
Result block: 22.4

Query block: Report Average % inhibition at 100 nM, nothing else, for this compound: Cc1cc(C2CCN(C(=O)OC3C4CC5CC3CC(C(N)=O)(C5)C4)C2)nn1C (single isomer, unassigned) [EXAMPLE 40 Isomer 1]
Result block: 90.8

Query block: Report Average % inhibition at 100 nM, nothing else, for this compound: Cc1cc(C)nc(C2CCN(C(=O)OC3C4CC5CC3CC(C(N)=O)(C5)C4)C2)n1 (single isomer, unassigned) [EXAMPLE 43 Isomer 2]
Result block: −1.8

Query block: Report Average % inhibition at 100 nM, nothing else, for this compound: Cc1ccc(C2CCN(C(=O)OC3C4CC5CC3CC(C(N)=O)(C5)C4)C2)nc1 (single isomer, unassigned) [EXAMPLE 35 Isomer 1]
Result block: 91.6

Query block: Report Average % inhibition at 100 nM, nothing else, for this compound: Cc1ccc(C2CCN(C(=O)OC3C4CC5CC3CC(C(N)=O)(C5)C4)C2)nn1 (single isomer, unassigned) [EXAMPLE 37 Isomer 2]
Result block: 13.3

Query block: Report Average % inhibition at 100 nM, nothing else, for this compound: Cc1ccnc(C2CCN(C(=O)OC3C4CC5CC3CC(C(N)=O)(C5)C4)C2)n1 (single isomer, unassigned) [EXAMPLE 38 Isomer 1]
Result block: 93.1

Query block: Report Average % inhibition at 100 nM, nothing else, for this compound: Cc1ccc(C2CCN(C(=O)OC3C4CC5CC3CC(C(N)=O)(C5)C4)C2)nn1 (single isomer, unassigned) [EXAMPLE 37 Isomer 1]
Result block: 76.6

Query block: Report Average % inhibition at 100 nM, nothing else, for this compound: Cc1ccc(C2CCN(C(=O)OC3C4CC5CC3CC(C(N)=O)(C5)C4)C2)nc1 (single isomer, unassigned) [EXAMPLE 35 Isomer 2]
Result block: 8.1

Query block: Report Average % inhibition at 100 nM, nothing else, for this compound: Cc1cnc(C2CCN(C(=O)OC3C4CC5CC3CC(C(N)=O)(C5)C4)C2)nc1 (single isomer, unassigned) [EXAMPLE 39 Isomer 2]
Result block: 1.8

Query block: Report Average % inhibition at 100 nM, nothing else, for this compound: O=C(OC1C2CC3CC1CC(O)(C3)C2)N1CCC(c2ncc(Cl)cn2)C1 (single isomer, unassigned) [EXAMPLE 24 Isomer 1]
Result block: 98.6

Query block: Report Average % inhibition at 100 nM, nothing else, for this compound: NC(=O)C12CC3CC(C1)C(OC(=O)N1CCC(c4ncc(F)cn4)C1)C(C3)C2 (single isomer, unassigned) [EXAMPLE 41 Isomer 2]
Result block: 69.0

Query block: Report Average % inhibition at 100 nM, nothing else, for this compound: Cc1ncc(C2CCN(C(=O)OC3C4CC5CC3CC(C(N)=O)(C5)C4)C2)cn1 (single isomer, unassigned) [EXAMPLE 36 Isomer 1]
Result block: 59.1

Query block: Report Average % inhibition at 100 nM, nothing else, for this compound: NC(=O)[C@]12CC3CC(C1)[C@@H](OC(=O)N1CCC(c4ncc(Cl)cn4)C1)C(C3)C2 (single isomer, unassigned) [EXAMPLE 26 Isomer 1a]
Result block: 102.6

Query block: Report Average % inhibition at 100 nM, nothing else, for this compound: Cc1ncc(C2CCN(C(=O)OC3C4CC5CC3CC(C(N)=O)(C5)C4)C2)cn1 (single isomer, unassigned) [EXAMPLE 36 Isomer 2]
Result block: 1.5

Query block: Report Average % inhibition at 100 nM, nothing else, for this compound: NC(=O)[C@]12CC3CC(C1)[C@@H](OC(=O)N1CC[C@@H](Oc4ncc(F)cc4F)C1)C(C3)C2 (relative stereo) [EXAMPLE 1]
Result block: 95.53

Query block: Report Average % inhibition at 100 nM, nothing else, for this compound: NC(=O)[C@]12CC3CC(C1)[C@@H](OC(=O)N1CCC(c4ncc(Cl)cn4)C1)C(C3)C2 (single isomer, unassigned) [EXAMPLE 26 Isomer 1b]
Result block: 84.2

Query block: Report Average % inhibition at 100 nM, nothing else, for this compound: O=C(OC1C2CC3CC1CC(O)(C3)C2)N1CCC(c2ncc(Cl)cn2)C1 (single isomer, unassigned) [EXAMPLE 24 Isomer 2]
Result block: 34.7

Query block: Report Average % inhibition at 100 nM, nothing else, for this compound: NC(=O)[C@]12CC3CC(C1)[C@@H](OC(=O)N1CCC(c4ncc(Cl)cn4)C1)C(C3)C2 (single isomer, unassigned) [EXAMPLE 26 Isomer 2]
Result block: 26.3

Query block: Report Average % inhibition at 100 nM, nothing else, for this compound: NC(=O)c1cnc(C2CCN(C(=O)OC3C4CC5CC3CC(C(N)=O)(C5)C4)C2)nc1 (single isomer, unassigned) [EXAMPLE 47 Isomer 1]
Result block: 6.1

Query block: Report Average % inhibition at 100 nM, nothing else, for this compound: Cn1cc(-c2cnc(C3CCN(C(=O)OC4C5CC6CC4CC(C(N)=O)(C6)C5)C3)nc2)ccc1=O (single isomer, unassigned) [EXAMPLE 58 Isomer 2]
Result block: 3.8

Query block: Report Average % inhibition at 100 nM, nothing else, for this compound: NC(=O)C12CC3CC(C1)C(OC(=O)N1CCC(c4ncc(F)cn4)C1)C(C3)C2 (single isomer, unassigned) [EXAMPLE 41 Isomer 1]
Result block: 92.3

Query block: Report Average % inhibition at 100 nM, nothing else, for this compound: Cc1cnc(C2CCN(C(=O)OC3C4CC5CC3CC(C(N)=O)(C5)C4)C2)nc1 (single isomer, unassigned) [EXAMPLE 39 Isomer 1]
Result block: 59.7

Query block: Report Average % inhibition at 100 nM, nothing else, for this compound: COc1cnc(C2CCN(C(=O)OC3C4CC5CC3CC(C(N)=O)(C5)C4)C2)nc1 (single isomer, unassigned) [EXAMPLE 44 Isomer 2]
Result block: 2.4
